Documented z-score across a set of molecules
# testProtocol: yeast growth modulation, basal conditions, primary screen, YJM789 clinical isolate, OD600, 24 h (AID 1089);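 note: growth of clinical yeast isolate S. cerevisiae YJM 789 seeded 1000 cells per well; test concentration not given here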
# settings: S. cerevisiae YJM789 growth, higher = more signal, called active from +8 up or from −8 down
Response field accepts a number only; no unit should be typed.

Example cases with answers are listed next.
CO[C@@H]1COC(=O)CC=C[C@H](C)COC(=O)[C@H](Cc2ccccc2)NC(=O)CC=C[C@H]1C = -0.346
Cc1ccc(N2C(=O)c3ccccc3[C@@H](C(=O)NCC(F)(F)F)[C@@H]2c2ccc(CO)cc2)nc1 = -0.678
COc1cc2c(cc1OC)CN(C(=O)[C@H]1[C@@H]3C(=O)O[C@@H](c4ccccc4)[C@@H](c4ccccc4)N3[C@@H](c3ccc(O)cc3)[C@]13C(=O)Nc1ccc(C#CC4(O)CCCCCC4)cc13)CC2 = 0.377

Now for a further molecule.
input: Endpoint output: z-score of O=C1C2C=CC(C(O)Cc3ccccc3)N(Nc3ccc([N+](=O)[O-])cc3)C2C(=O)N1c1ccccc1 (centres undefined) . Value?
output: -0.442
